Just for reference, patent US6504058B1 is where these values come from.

Measured Test A disease control rating (wheat powdery mildew), listed per entry.
- Test system: Erysiphe graminis f. sp. tritici
- ASSAY_REMARKS: Test A: wheat powdery mildew, preventive spray on wheat seedlings, disease rating
- Format: in vivo, Erysiphe graminis f. sp. tritici (on wheat seedlings)
- ASSAY_CONDITIONS: 200 ppm test suspension sprayed to run-off (equivalent to 500 g/ha) on wheat seedlings; 100 = 100% disease control, 0 = no control; # = significant activity
MEASURED_METRIC: Test A disease control rating (wheat powdery mildew)

COMPOUND	RECORDED_RESULT
CC(COc1cc(F)ccc1Cl)NC(=O)C1(C)CC(C)(Cl)C1 (stereo not drawn) [compound 50]	54%
CC(COc1cc(F)ccc1Cl)NC(=O)C1(C)CC(C)(Br)C1 (stereo not drawn) [compound 56]	99# %
CC(NC(=O)C1(C)CC(C)(Cl)C1)c1ccc(Cl)cc1Cl (stereo not drawn) [compound 20]	59%
CC(NC(=O)C1CC(C)(Cl)C1)C(Oc1cc(F)ccc1C#N)c1ccccc1 (stereo not drawn) [compound 34]	59%
CC(NC(=O)C1(C)CC(C)(Cl)C1)c1ccc(Cl)cc1Cl (stereo not drawn) [compound 72]	91# %
